Sourced from patent US9821072B2

Known Ki of a selection of molecules
test-system: rat neurotensin receptor type 1 (rNTR-1) (Rattus norvegicus, UniProt P20789)
Sequence (P20789 whole entry): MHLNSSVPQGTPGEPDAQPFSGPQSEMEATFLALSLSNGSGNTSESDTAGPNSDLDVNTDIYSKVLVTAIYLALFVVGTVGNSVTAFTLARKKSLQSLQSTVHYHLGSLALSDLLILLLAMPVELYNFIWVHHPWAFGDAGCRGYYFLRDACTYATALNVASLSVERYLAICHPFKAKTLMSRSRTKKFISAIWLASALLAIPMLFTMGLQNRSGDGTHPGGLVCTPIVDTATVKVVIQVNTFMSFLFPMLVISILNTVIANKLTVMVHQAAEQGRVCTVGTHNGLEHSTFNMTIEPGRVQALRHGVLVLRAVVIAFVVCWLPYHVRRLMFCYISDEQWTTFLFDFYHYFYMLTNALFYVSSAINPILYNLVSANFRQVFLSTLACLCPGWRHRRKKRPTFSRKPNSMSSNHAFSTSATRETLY
Bridge positions count the residues as written; N and C are the ends. Square brackets hold non-standard residues; d marks the D form. Peptide text beside a SMILES is read from it. * marks the point of attachment. Pen = CC(C)(S)[C@H](N)C(=O)O; Tle = CC(C)(C)[C@H](N)C(=O)O; Pip = O=C(O)[C@@H]1CCCCN1; Propionyl = CCC(=O)*; Sar = CNCC(=O)O
Express the result in nM but write the number alone.

Request: // fetch Ki for CCC(=O)N[C@@H]1CSSC[C@@H](C(=O)N[C@@H](CCCCN)C(=O)N[C@@H](CCCNC(=N)N)C(=O)N2CCC[C@H]2C(=O)N[C@@H](Cc2c[nH]c3ccccc23)C(=O)N[C@H](C(=O)N[C@@H](CC(C)C)C(=O)O)C(C)(C)C)NC(=O)CN(C)C(=O)[C@H](CCCNC(=N)N)NC(=O)[C@H](CC(C)C)NC(=O)[C@H](CCCNC(=N)N)NC(=O)[C@@H]2CCCCN2C(=O)[C@H](CCSC)NC1=O [XIX, Pr-cMPipRLRSarC-KRPWTIeL-OH] (Propionyl-[dC]M[Pip]RLR[Sar]CKRPW[Tle]L-OH; disulfide 1-8) ; system: rat neurotensin receptor type 1 (rNTR-1) (Rattus norvegicus, UniProt P20789)
Response: 0.03

Next:
Request: Supply Ki measured with rat neurotensin receptor type 1 (rNTR-1) (Rattus norvegicus, UniProt P20789) for CCC(=O)N[C@@H]1CSSC(C)(C)[C@@H](C(=O)N[C@@H](CCCCN)C(=O)N[C@@H](CCCNC(=N)N)C(=O)N2CCC[C@H]2C(=O)N[C@@H](Cc2ccc(O)cc2)C(=O)N[C@H](C(=O)N[C@@H](CC(C)C)C(=O)O)C(C)(C)C)NC(=O)CN(C)C(=O)[C@H](CCCNC(=N)N)NC(=O)[C@H](CC(C)C)NC(=O)[C@H](CCCNC(=N)N)NC(=O)[C@@H]2CCCCN2C(=O)[C@H](CCSC)NC1=O [XX, Pr-cMPipRLRSarPen-KRPYTIeL-OH] (Propionyl-[dC]M[Pip]RLR[Sar][Pen]KRPY[Tle]L-OH; disulfide 1-8) .
Response: 0.08

Request: System rat neurotensin receptor type 1 (rNTR-1) (Rattus norvegicus, UniProt P20789). Read-out Ki. Item CCC(=O)N[C@@H]1CSSC[C@@H](C(=O)N[C@@H](CCCNC(=N)N)C(=O)N[C@@H](CCCNC(=N)N)C(=O)N2CCC[C@H]2C(=O)N[C@@H](Cc2ccc(O)cc2)C(=O)N[C@H](C(=O)N[C@@H](CC(C)C)C(=O)O)C(C)(C)C)NC(=O)CN(C)C(=O)[C@H](CCCNC(=N)N)NC(=O)[C@H](CC(C)C)NC(=O)[C@H](CCCNC(=N)N)NC(=O)[C@@H]2CCCCN2C(=O)[C@H](CCSC)NC1=O [Compound XV, Pr-cMPipRLRSarC-RRPYTIeL-OH] (Propionyl-[dC]M[Pip]RLR[Sar]CRRPY[Tle]L-OH; disulfide 1-8) . Report value.
Response: 0.06

---

Bridge positions count the residues as written; N and C are the ends. Square brackets hold non-standard residues; d marks the D form. Peptide text beside a SMILES is read from it. * marks the point of attachment. Tle = CC(C)(C)[C@H](N)C(=O)O; Pip = O=C(O)[C@@H]1CCCCN1; Propionyl = CCC(=O)*; Sar = CNCC(=O)O
Quick note: these are pKi numbers for system: rat neurotensin receptor type 1 (rNTR-1) (Rattus norvegicus)
Lab note — pKi values are minus log10 of concentrations in M.

Request: Recall the reported pKi of CCC(=O)N[C@@H]1CSSC[C@@H](C(=O)N[C@@H](CCCNC(=N)N)C(=O)N[C@@H](CCCCN)C(=O)N2CCC[C@H]2C(=O)N[C@@H](Cc2ccc(O)cc2)C(=O)N[C@H](C(=O)N[C@@H](CC(C)C)C(=O)O)C(C)(C)C)NC(=O)CN(C)C(=O)[C@H](CCCNC(=N)N)NC(=O)[C@H](CC(C)C)NC(=O)[C@H](CCCNC(=N)N)NC(=O)[C@@H]2CCCCN2C(=O)[C@H](CCSC)NC1=O [XVII, Pr-cMPipRLRSarC-RKPYTIeL-OH] (Propionyl-[dC]M[Pip]RLR[Sar]CRKPY[Tle]L-OH; disulfide 1-8) on rat neurotensin receptor type 1 (rNTR-1) (Rattus norvegicus) and write it down.
Response: 9.72

Now examine the next entry.
Request: For rat neurotensin receptor type 1 (rNTR-1) (Rattus norvegicus), give pKi of the listed molecule: CCC(=O)N[C@@H]1CSSC[C@@H](C(=O)N[C@@H](CCCNC(=N)N)C(=O)N[C@@H](CCCNC(=N)N)C(=O)N2CCC[C@H]2C(=O)N[C@@H](Cc2c[nH]c3ccccc23)C(=O)N[C@H](C(=O)N[C@@H](CC(C)C)C(=O)O)C(C)(C)C)NC(=O)CN(C)C(=O)[C@H](CCCNC(=N)N)NC(=O)[C@H](CC(C)C)NC(=O)[C@H](CCCNC(=N)N)NC(=O)[C@@H]2CCCCN2C(=O)[C@H](CCSC)NC1=O [XVIII, Pr-cMPipRLRSarC-RRPWTIeL-OH] (Propionyl-[dC]M[Pip]RLR[Sar]CRRPW[Tle]L-OH; disulfide 1-8)
Response: 10.70

---

test-system: rat neurotensin receptor type 1 (rNTR-1) (Rattus norvegicus, UniProt P20789)
outcome-measure: Ki
Please answer using the number first and the unit second.

Request: Provide the reported Ki (system: rat neurotensin receptor type 1 (rNTR-1) (Rattus norvegicus, UniProt P20789)) for "CCC(=O)N[C@@H]1CSSC[C@@H](C(=O)NCCOCCOCCOCCOCCOCCOCCC(=O)N[C@@H](CCCNC(=N)N)C(=O)N[C@@H](CCCNC(=N)N)C(=O)N2CCC[C@H]2C(=O)N[C@@H](Cc2ccc(O)cc2)C(=O)N[C@H](C(=O)N[C@@H](CC(C)C)C(=O)O)[C@@H](C)CC)NC(=O)CN(C)C(=O)[C@H](CCCNC(=N)N)NC(=O)[C@H](CC(C)C)NC(=O)[C@H](CCCNC(=N)N)NC(=O)[C@@H]2CCCCN2C(=O)[C@H](CCSC)NC1=O"
Response: 1.06 nM

---

test-system: human neurotensin receptor type 1 (hNTR-1) (Homo sapiens, UniProt P30989)
Sequence (P30989 whole entry): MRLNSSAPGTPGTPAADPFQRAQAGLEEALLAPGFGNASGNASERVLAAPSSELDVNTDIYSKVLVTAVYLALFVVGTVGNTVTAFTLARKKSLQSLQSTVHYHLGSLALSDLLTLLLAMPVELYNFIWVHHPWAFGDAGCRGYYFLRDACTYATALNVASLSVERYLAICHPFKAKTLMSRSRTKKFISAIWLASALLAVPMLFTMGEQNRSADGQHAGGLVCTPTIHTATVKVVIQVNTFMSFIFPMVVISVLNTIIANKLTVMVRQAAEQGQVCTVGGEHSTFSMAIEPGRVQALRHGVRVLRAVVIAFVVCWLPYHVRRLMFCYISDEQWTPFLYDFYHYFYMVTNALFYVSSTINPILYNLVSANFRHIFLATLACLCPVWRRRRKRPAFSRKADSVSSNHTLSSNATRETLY
Bridge positions count the residues as written; N and C are the ends. Square brackets hold non-standard residues; d marks the D form. Peptide text beside a SMILES is read from it. * marks the point of attachment. Pen = CC(C)(S)[C@H](N)C(=O)O; Tle = CC(C)(C)[C@H](N)C(=O)O; Pip = O=C(O)[C@@H]1CCCCN1; Propionyl = CCC(=O)*; Sar = CNCC(=O)O
outcome-measure: pKi
The meaning of pKi here: minus log10 of the concentration in molar units.

Request: Write down measured pKi (human neurotensin receptor type 1 (hNTR-1) (Homo sapiens, UniProt P30989)) for this compound. CCC(=O)N[C@@H]1CSSC(C)(C)[C@@H](C(=O)N[C@@H](CCCCN)C(=O)N[C@@H](CCCNC(=N)N)C(=O)N2CCC[C@H]2C(=O)N[C@@H](Cc2ccc(O)cc2)C(=O)N[C@H](C(=O)N[C@@H](CC(C)C)C(=O)O)C(C)(C)C)NC(=O)CN(C)C(=O)[C@H](CCCNC(=N)N)NC(=O)[C@H](CC(C)C)NC(=O)[C@H](CCCNC(=N)N)NC(=O)[C@@H]2CCCCN2C(=O)[C@H](CCSC)NC1=O [XX, Pr-cMPipRLRSarPen-KRPYTIeL-OH] (Propionyl-[dC]M[Pip]RLR[Sar][Pen]KRPY[Tle]L-OH; disulfide 1-8)
Response: 9.96

Request: Output reported pKi of the compound CCC(=O)N[C@@H]1CSSC[C@@H](C(=O)N[C@@H](CCCCN)C(=O)N[C@@H](CCCNC(=N)N)C(=O)N2CCC[C@H]2C(=O)N[C@@H](Cc2c[nH]c3ccccc23)C(=O)N[C@H](C(=O)N[C@@H](CC(C)C)C(=O)O)C(C)(C)C)NC(=O)CN(C)C(=O)[C@H](CCCNC(=N)N)NC(=O)[C@H](CC(C)C)NC(=O)[C@H](CCCNC(=N)N)NC(=O)[C@@H]2CCCCN2C(=O)[C@H](CCSC)NC1=O [XIX, Pr-cMPipRLRSarC-KRPWTIeL-OH] (Propionyl-[dC]M[Pip]RLR[Sar]CKRPW[Tle]L-OH; disulfide 1-8) on human neurotensin receptor type 1 (hNTR-1) (Homo sapiens, UniProt P30989).
Response: 8.20

Request: # lookup: human neurotensin receptor type 1 (hNTR-1) (Homo sapiens, UniProt P30989) pKi, key = CCC(=O)N[C@@H]1CSSC[C@@H](C(=O)N[C@@H](CCCNC(=N)N)C(=O)N[C@@H](CCCNC(=N)N)C(=O)N2CCC[C@H]2C(=O)N[C@@H](Cc2ccc(O)cc2)C(=O)N[C@H](C(=O)N[C@@H](CC(C)C)C(=O)O)C(C)(C)C)NC(=O)CN(C)C(=O)[C@H](CCCNC(=N)N)NC(=O)[C@H](CC(C)C)NC(=O)[C@H](CCCNC(=N)N)NC(=O)[C@@H]2CCCCN2C(=O)[C@H](CCSC)NC1=O [Compound XV, Pr-cMPipRLRSarC-RRPYTIeL-OH] (Propionyl-[dC]M[Pip]RLR[Sar]CRRPY[Tle]L-OH; disulfide 1-8)
Response: 9.40

Continuing:
Request: Write down the reported pKi (system: human neurotensin receptor type 1 (hNTR-1) (Homo sapiens, UniProt P30989)) of CCC(=O)N[C@@H]1CSSC[C@@H](C(=O)N[C@@H](CCCNC(=N)N)C(=O)N[C@@H](CCCNC(=N)N)C(=O)N2CCC[C@H]2C(=O)N[C@@H](Cc2c[nH]c3ccccc23)C(=O)N[C@H](C(=O)N[C@@H](CC(C)C)C(=O)O)C(C)(C)C)NC(=O)CN(C)C(=O)[C@H](CCCNC(=N)N)NC(=O)[C@H](CC(C)C)NC(=O)[C@H](CCCNC(=N)N)NC(=O)[C@@H]2CCCCN2C(=O)[C@H](CCSC)NC1=O [XVIII, Pr-cMPipRLRSarC-RRPWTIeL-OH] (Propionyl-[dC]M[Pip]RLR[Sar]CRRPW[Tle]L-OH; disulfide 1-8)
Response: 8.53
